- assayProcedure: Total plasma clearance in ICR mouse at 5 micromol/kg, iv measured after 24 hrs by LC-MS/MS analysis
- Type: ADME, organism-based
- conditionDescription: dose 5 µmol/kg
metric: clearance (mL/min/kg)
Give bare numbers, in mL/min/kg.

compound: CN(CC#Cc1cscn1)c1nc(=O)c2cc(C(F)(F)F)cc([N+](=O)[O-])c2s1
clearance (mL/min/kg): 8.5

Please state, for each entry, its recorded clearance.
1. CN(CC#Cc1ccccc1)c1nc(=O)c2cc(C(F)(F)F)cc([N+](=O)[O-])c2s1
2. O=c1nc(N2CCN(CC3CCCCC3)CC2)sc2c([N+](=O)[O-])cc(C(F)(F)F)cc12 [MACOZINONE]

Return:
1: 1.5; 2: 65.5

====

Field: Vd. Provide a value for each of the molecules that follow.
- assayProcedure: Volume of distribution at steady state in ICR mouse at 5 micromol/kg, iv measured after 24 hrs by LC-MS/MS analysis
- Format: ADME, organism-based
- conditionDescription: in vivo, dose 5 µmol/kg, read-out: Vdss
Give bare numbers, in L/kg.

testSmiles: O=c1nc(N2CCN(CC3CCCCC3)CC2)sc2c([N+](=O)[O-])cc(C(F)(F)F)cc12
Vd (L/kg): 5.61
//
testSmiles: CN(CC#Cc1ccccc1)c1nc(=O)c2cc(C(F)(F)F)cc([N+](=O)[O-])c2s1
Vd (L/kg): 0.25

Enquiry: Would you mind telling me what Vd value was observed for `CN(CC#Cc1cscn1)c1nc(=O)c2cc(C(F)(F)F)cc([N+](=O)[O-])c2s1` ?
Return: 0.59

====

- Tested on: Mycobacterium tuberculosis
- assayProcedure: Antitubercular activity against Mycobacterium tuberculosis H37Rv (ATCC 25618) incubated for […] by MABA assay
- Assay type: functional
Mark Y only when MIC stays strictly below 0.09 µM. Values equal to the cut-off are N.

molecule: CN(CC#Cc1cncs1)c1nc(=O)c2cc(C(F)(F)F)cc([N+](=O)[O-])c2s1
className: N

Enquiry: Lab note: MIC threshold 0.09 µM. Does this molecule come in strictly under it? `CN(CC#CCN1CCSCC1)c1nc(=O)c2cc(C(F)(F)F)cc([N+](=O)[O-])c2s1`
Return: Y

Enquiry: Lab note: MIC threshold 0.09 µM. Does this molecule come in strictly under it? `CN(CC#Cc1ccccc1F)c1nc(=O)c2cc(C(F)(F)F)cc([N+](=O)[O-])c2s1`
Return: Y

Enquiry: Lab note: MIC threshold 0.09 µM. Does this molecule come in strictly under it? `CN(C/C=C\C1CC1)c1nc(=O)c2cc(C(F)(F)F)cc([N+](=O)[O-])c2s1`
Return: Y

Enquiry: Lab note: MIC threshold 0.09 µM. Does this molecule come in strictly under it? `CN(CC#CCN1CCSC1)c1nc(=O)c2cc(C(F)(F)F)cc([N+](=O)[O-])c2s1`
Return: Y

Enquiry: Lab note: MIC threshold 0.09 µM. Does this molecule come in strictly under it? `CN(C/C=C/C1CC1)c1nc(=O)c2cc(C(F)(F)F)cc([N+](=O)[O-])c2s1`
Return: Y

Enquiry: Lab note: MIC threshold 0.09 µM. Does this molecule come in strictly under it? `CN(CC#CC(C)(C)C)c1nc(=O)c2cc(C(F)(F)F)cc([N+](=O)[O-])c2s1`
Return: Y

Enquiry: Lab note: MIC threshold 0.09 µM. Does this molecule come in strictly under it? `CN(C/C=C\c1ccccc1)c1nc(=O)c2cc(C(F)(F)F)cc([N+](=O)[O-])c2s1`
Return: Y

====

- Test system: Mycobacterium tuberculosis
- assayProcedure: Antitubercular activity against Mycobacterium tuberculosis H37Rv (ATCC 25618) incubated for […] by MABA assay
- Format: functional
Mark 1 only when MIC stays strictly below 0.01 µM. Values equal to the cut-off are -1.

Use the examples below as a reference point.
compound: CN(CC#CC1CCCCC1)c1nc(=O)c2cc(C(F)(F)F)cc([N+](=O)[O-])c2s1
className: 1

compound: CN(CC#Cc1cccc(C#N)c1)c1nc(=O)c2cc(C(F)(F)F)cc([N+](=O)[O-])c2s1
className: -1

compound: O=c1nc(N2CCN(CC3CCCCC3)CC2)sc2c([N+](=O)[O-])cc(C(F)(F)F)cc12 [MACOZINONE]
className: 1

Enquiry: Lab note: MIC threshold 0.01 µM. Does this compound come in strictly under it? `CN(CC#CC1CCCC1)c1nc(=O)c2cc(C(F)(F)F)cc([N+](=O)[O-])c2s1`
Return: 1

Enquiry: Lab note: MIC threshold 0.01 µM. Does this compound come in strictly under it? `CN(CC#CCN1CCCCC1)c1nc(=O)c2cc(C(F)(F)F)cc([N+](=O)[O-])c2s1`
Return: -1

Enquiry: Lab note: MIC threshold 0.01 µM. Does this compound come in strictly under it? `CN(CC#CCN1CC[S+]([O-])CC1)c1nc(=O)c2cc(C(F)(F)F)cc([N+](=O)[O-])c2s1`
Return: -1

Enquiry: Lab note: MIC threshold 0.01 µM. Does this compound come in strictly under it? `CN(CC#CCc1ccccc1)c1nc(=O)c2cc(C(F)(F)F)cc([N+](=O)[O-])c2s1`
Return: -1

Enquiry: Lab note: MIC threshold 0.01 µM. Does this compound come in strictly under it? `CN(CC#Cc1cccs1)c1nc(=O)c2cc(C(F)(F)F)cc([N+](=O)[O-])c2s1`
Return: -1

Enquiry: Lab note: MIC threshold 0.01 µM. Does this compound come in strictly under it? `CN(CC#Cc1ccc(F)c(F)c1)c1nc(=O)c2cc(C(F)(F)F)cc([N+](=O)[O-])c2s1`
Return: -1

====

- System: Mycobacterium tuberculosis
- assayProcedure: Antitubercular activity against Mycobacterium tuberculosis H37Rv (ATCC 25618) incubated for […] by MABA assay
- Type: functional
Mark criterion met only when MIC stays strictly below 0.02 µM. Values equal to the cut-off are criterion not met.

Use the examples below as a reference point.
molecule: CN(C)CCc1ccc(C#CCN(C)c2nc(=O)c3cc(C(F)(F)F)cc([N+](=O)[O-])c3s2)cc1
className: criterion not met

molecule: CN(CC#CCN1CCOCC1)c1nc(=O)c2cc(C(F)(F)F)cc([N+](=O)[O-])c2s1
className: criterion not met

molecule: CN(C/C=C\C1CCCCC1)c1nc(=O)c2cc(C(F)(F)F)cc([N+](=O)[O-])c2s1
className: criterion met

Enquiry: Lab note: MIC threshold 0.02 µM. Does this molecule come in strictly under it? `CN(C/C=C/C1CCCCC1)c1nc(=O)c2cc(C(F)(F)F)cc([N+](=O)[O-])c2s1`
Return: criterion met

Enquiry: Lab note: MIC threshold 0.02 µM. Does this molecule come in strictly under it? `C#CCN(C)c1nc(=O)c2cc(C(F)(F)F)cc([N+](=O)[O-])c2s1`
Return: criterion not met

Enquiry: Lab note: MIC threshold 0.02 µM. Does this molecule come in strictly under it? CN(CC#CC(O)CN1CCCCC1)c1nc(=O)c2cc(C(F)(F)F)cc([N+](=O)[O-])c2s1 (configuration not stated)
Return: criterion not met

Enquiry: Lab note: MIC threshold 0.02 µM. Does this molecule come in strictly under it? `CN(CC#Cc1ccc2c(c1)OCO2)c1nc(=O)c2cc(C(F)(F)F)cc([N+](=O)[O-])c2s1`
Return: criterion not met

Enquiry: Lab note: MIC threshold 0.02 µM. Does this molecule come in strictly under it? `CN(CC#Cc1ccc(F)cc1)c1nc(=O)c2cc(C(F)(F)F)cc([N+](=O)[O-])c2s1`
Return: criterion met

====

- Test system: Mycobacterium tuberculosis
- assayProcedure: Antitubercular activity against Mycobacterium tuberculosis H37Rv (ATCC 25618) incubated for […] by MABA assay
- Assay type: functional
Field: MIC. Provide a value for each of the compounds that follow.
Give bare numbers, in µM.

Below, each entry is followed by its recorded MIC result.
testSmiles: CN(C/C=C/C1CCCC1)c1nc(=O)c2cc(C(F)(F)F)cc([N+](=O)[O-])c2s1
assayResult: 0.002

testSmiles: COc1cccc(C#CCN(C)c2nc(=O)c3cc(C(F)(F)F)cc([N+](=O)[O-])c3s2)c1
assayResult: 0.093

testSmiles: CN(C/C=C/c1ccccc1)c1nc(=O)c2cc(C(F)(F)F)cc([N+](=O)[O-])c2s1
assayResult: 0.024

Consider now this further compound.
Enquiry: Hello, I am looking for reported MIC with Mycobacterium tuberculosis for `CN(CC#Cc1ccc(F)cc1F)c1nc(=O)c2cc(C(F)(F)F)cc([N+](=O)[O-])c2s1` . Could you help?
Return: 0.007
